Recorded values, source patent US20250270199A1.

compounds and their reported MIC
# Tested on: S. aureus ATCC 33591 (Sa 91)
# method description: MIC, broth microdilution, Sa 91
# Assay type: cell-based
# experimental setup: Staphylococcus aureus, ATCC33591; Table 1, HT series; read-out: Minimum inhibitory concentration (MIC) Sa 91
# Method: The broth microdilution method was utilized to determine MIC values of novel thiazole derivatives against different clinically important Gram-positive bacteria according to the guidelines outlined by the Clinical and Laboratory Standards Institute (CLSI) as reported in our recent papers.^1-5 The starting concentration of compounds for MIC determination was 64 μg/mL serially diluted down the wells and the MIC values were recorded in duplicates in three independent experiments on different days.

smiles string: Oc1ccc(-c2nc(-c3ccc4ccccc4c3)cs2)cc1O
result value: 8 µg/mL
--
smiles string: Oc1ccc(-c2nc(-c3cccc(Cl)c3)cs2)cc1
result value: 4 µg/mL
--
smiles string: Oc1ccc(-c2nc(-c3ccccc3)cs2)cc1O
result value: 16 µg/mL

Consider the compound Oc1ccc(-c2nc(-c3ccc(C(F)(F)F)cc3)cs2)cc1 and give its recorded MIC.
4 µg/mL

###

# Test system: S. aureus ATCC 25923 (Sa 23)
# method description: MIC, broth microdilution, Sa 23
# Type: cell-based
# experimental setup: Staphylococcus aureus, ATCC25923, Table 1, HT series; replicates from different days separated by comma; read-out: Minimum inhibitory concentration (MIC) Sa 23
measurement label: MIC (µg/mL)
# unit: µg/mL | format: bare number

Solved entries (count: 3):
compound: Oc1ccc(-c2nc(-c3cc(C(F)(F)F)cc(C(F)(F)F)c3)cs2)cc1 [Compound 36]
value unit: µg/mL
MIC: 2
--
compound: Oc1ccc(-c2nc(-c3ccc(Cl)cc3Cl)cs2)cc1 [Compound 34]
value unit: µg/mL
MIC: 4
--
compound: Oc1ccc(-c2nc(-c3ccc(F)c(Cl)c3)cs2)cc1O [Compound 21]
value unit: µg/mL
MIC: 8

Now turn to the next compound.
State, in one line, measured MIC of Oc1ccc(-c2csc(-c3ccc(O)c(O)c3)n2)cc1 [Compound 8]
16

###

# Tested on: S. aureus ATCC 33591 (Sa 91)
# method description: MIC, broth microdilution, Sa 91
# Type: cell-based
# experimental setup: Staphylococcus aureus, ATCC33591; Table 1, HT series; read-out: Minimum inhibitory concentration (MIC) Sa 91
measurement label: log10 of MIC (log10 of the value in µg/mL)
Note the log scale: values are log10 of MIC expressed in µg/mL.

# example entries with known answers
compound: Oc1ccc(-c2nc(-c3ccc(F)cc3)cs2)cc1O [Compound 4]
log10 of MIC: 0.90
--
compound: Oc1ccc(-c2nc(-c3ccc(Cl)c(Cl)c3)cs2)cc1O [Compound 31]
log10 of MIC: 0.60
--
compound: Oc1ccc(-c2nc(-c3ccc(C(F)(F)F)cc3)cs2)cc1O [Compound 9]
log10 of MIC: 0.60

Report log10 of MIC, nothing else, for this compound: Oc1ccc(-c2nc(-c3ccc(Cl)cc3Cl)cs2)cc1 [Compound 34]
0.60

###

Recorded Minimum inhibitory concentration (MIC) Sa 99, one value per entry.
# Test system: S. aureus ATCC 700699 (Sa 99)
# method description: MIC, broth microdilution, Sa 99
# Type: cell-based
# experimental setup: Table 1, HT series; replicates from different days separated by comma

As a guide, the following entries are already answered.
smiles string: N#Cc1ccc(-c2csc(-c3ccc(O)c(O)c3)n2)cc1
study system: S. aureus ATCC 700699 (Sa 99)
result value: >32, >32 μg/mL
--
smiles string: Oc1ccc(-c2nc(-c3ccc(Cl)cc3Cl)cs2)cc1O
study system: S. aureus ATCC 700699 (Sa 99)
result value: 2, 2, 2 μg/mL
--
smiles string: Oc1ccc(-c2nc(-c3ccc(C(F)(F)F)cc3)cs2)cc1O
study system: S. aureus ATCC 700699 (Sa 99)
result value: 2, 2, 2 μg/mL

Return Minimum inhibitory concentration (MIC) Sa 99 (reported value) for this compound: Oc1ccc(-c2nc(-c3cc(C(F)(F)F)cc(C(F)(F)F)c3)cs2)cc1O
2, 2, 2 μg/mL

Indicate the recorded Minimum inhibitory concentration (MIC) Sa 99 value for this compound: Oc1ccc(-c2nc(-c3ccc4ccccc4c3)cs2)cc1O
2, 2, 2 μg/mL

Read off the recorded Minimum inhibitory concentration (MIC) Sa 99 for O=C(O)c1ccc(-c2csc(-c3ccc(O)c(O)c3)n2)cc1
>32, >32 μg/mL

Please report the measured Minimum inhibitory concentration (MIC) Sa 99 for Oc1ccc(-c2nc(-c3ccc(Br)cc3)cs2)cc1O
2, 2, 2 μg/mL

Provide Minimum inhibitory concentration (MIC) Sa 99 value for the following compound: Oc1ccc(-c2nc(C(F)(F)F)cs2)cc1O
>32, >32 μg/mL

Please list Minimum inhibitory concentration (MIC) Sa 99 recorded for the compound COc1ccc(-c2csc(-c3ccc(O)c(O)c3)n2)cc1
32, 32 μg/mL

Identify measured Minimum inhibitory concentration (MIC) Sa 99 corresponding to NC(=O)c1cc(-c2csc(-c3ccc(O)c(O)c3)n2)ccc1O
>32, >32 μg/mL

###

Each entry below carries its reported Minimum inhibitory concentration (MIC) Sa 99.
# Tested on: S. aureus ATCC 700699 (Sa 99)
# method description: MIC, broth microdilution, Sa 99
# Type: cell-based
# experimental setup: Table 1, HT series; replicates from different days separated by comma
# Experimental: The broth microdilution method was utilized to determine MIC values of novel thiazole derivatives against different clinically important Gram-positive bacteria according to the guidelines outlined by the Clinical and Laboratory Standards Institute (CLSI) as reported in our recent papers.^1-5 The starting concentration of compounds for MIC determination was 64 μg/mL serially diluted down the wells and the MIC values were recorded in duplicates in three independent experiments on different days.

Answered cases to consult:
smiles string: Oc1ccc(-c2nc(-c3ccc(-c4ccccc4)cc3)cs2)cc1O
result value: >32, >32 μg/mL
--
smiles string: Oc1ccc(-c2nc(-c3cccc(Cl)c3)cs2)cc1O
result value: 4, 4, 4 μg/mL

Turning now to a further record.
Please give the documented Minimum inhibitory concentration (MIC) Sa 99 of Oc1ccc(-c2nc(-c3ccncc3)cs2)cc1O
>32, >32 μg/mL

###

Known MIC of a selection of compounds
# Test system: S. aureus ATCC 33591 (Sa 91)
# method description: MIC, broth microdilution, Sa 91
# Type: cell-based
# experimental setup: Staphylococcus aureus, ATCC33591; Table 1, HT series; read-out: Minimum inhibitory concentration (MIC) Sa 91
Express the result in mg/L but write the number alone.

Known results for compounds:
compound: Oc1ccc(-c2nc(-c3ccc(F)c(Cl)c3)cs2)cc1O [Compound 21]
value unit: mg/L
MIC: 4
--
compound: Oc1ccc(-c2nc(-c3cc(C(F)(F)F)cc(C(F)(F)F)c3)cs2)cc1O [Compound 10]
value unit: mg/L
MIC: 2
--
compound: Oc1ccc(-c2nc(-c3cc(C(F)(F)F)cc(C(F)(F)F)c3)cs2)cc1 [Compound 36]
value unit: mg/L
MIC: 2
--
compound: Oc1ccc(-c2nc(-c3ccc(Cl)c(Cl)c3)cs2)cc1 [Compound 41]
value unit: mg/L
MIC: 1

Moving on to another compound below.
Specify MIC for Oc1ccc(-c2csc(-c3ccc(O)c(O)c3)n2)cc1 [Compound 8] and stop.
32
